target-system: Neuronal acetylcholine receptor subunit alpha-7 (Homo sapiens, UniProt P36544)
Sequence (P36544 whole entry): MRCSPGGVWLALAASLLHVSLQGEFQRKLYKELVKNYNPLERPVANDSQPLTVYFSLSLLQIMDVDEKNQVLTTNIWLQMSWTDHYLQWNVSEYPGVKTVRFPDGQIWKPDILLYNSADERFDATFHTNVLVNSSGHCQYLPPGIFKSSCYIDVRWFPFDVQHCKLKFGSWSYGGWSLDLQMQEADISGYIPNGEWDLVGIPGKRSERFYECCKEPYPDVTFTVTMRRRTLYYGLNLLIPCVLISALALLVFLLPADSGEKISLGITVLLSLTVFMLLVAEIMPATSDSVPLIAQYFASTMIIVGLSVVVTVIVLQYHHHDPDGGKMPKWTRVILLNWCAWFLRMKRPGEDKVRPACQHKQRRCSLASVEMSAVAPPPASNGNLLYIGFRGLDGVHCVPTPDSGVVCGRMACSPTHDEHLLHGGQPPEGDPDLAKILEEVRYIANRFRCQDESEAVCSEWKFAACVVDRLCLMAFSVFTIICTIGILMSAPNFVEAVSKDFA
assay-remarks: Binding affinity to alpha7 nAChR
# log10 of Ki annotations
assay-endpoint: log10 of Ki (log10 of the value in nM)

compound="CN1CC2CN(c3ccc(-c4ccc5[nH]ccc5c4)nn3)CC2C1 (stereo unspecified)" target_system="Neuronal acetylcholine receptor subunit alpha-7 (Homo sapiens, UniProt P36544)" obs_value=-0.62
compound=Clc1cnc2nc(N3CCN4CCC3CC4)oc2c1 target_system="Neuronal acetylcholine receptor subunit alpha-7 (Homo sapiens, UniProt P36544)" obs_value=0.00
compound=O=C1O[C@]2(CN3CCC2CC3)CN1c1cc2ccccc2s1 target_system="Neuronal acetylcholine receptor subunit alpha-7 (Homo sapiens, UniProt P36544)" obs_value=1.88
compound=O=C(N[C@H]1CN2CCC1CC2)c1ccc2occc2c1 target_system="Neuronal acetylcholine receptor subunit alpha-7 (Homo sapiens, UniProt P36544)" obs_value=0.20
compound=c1cnc2nc(N3CCN4CCC3CC4)oc2c1 target_system="Neuronal acetylcholine receptor subunit alpha-7 (Homo sapiens, UniProt P36544)" obs_value=1.48
compound=O=C1O[C@]2(CN3CCC2CC3)CN1c1ccc2sccc2c1 target_system="Neuronal acetylcholine receptor subunit alpha-7 (Homo sapiens, UniProt P36544)" obs_value=1.45

----------
target-system: Cytochrome P450 2D6 (Homo sapiens, UniProt P10635)
Sequence (P10635 whole entry): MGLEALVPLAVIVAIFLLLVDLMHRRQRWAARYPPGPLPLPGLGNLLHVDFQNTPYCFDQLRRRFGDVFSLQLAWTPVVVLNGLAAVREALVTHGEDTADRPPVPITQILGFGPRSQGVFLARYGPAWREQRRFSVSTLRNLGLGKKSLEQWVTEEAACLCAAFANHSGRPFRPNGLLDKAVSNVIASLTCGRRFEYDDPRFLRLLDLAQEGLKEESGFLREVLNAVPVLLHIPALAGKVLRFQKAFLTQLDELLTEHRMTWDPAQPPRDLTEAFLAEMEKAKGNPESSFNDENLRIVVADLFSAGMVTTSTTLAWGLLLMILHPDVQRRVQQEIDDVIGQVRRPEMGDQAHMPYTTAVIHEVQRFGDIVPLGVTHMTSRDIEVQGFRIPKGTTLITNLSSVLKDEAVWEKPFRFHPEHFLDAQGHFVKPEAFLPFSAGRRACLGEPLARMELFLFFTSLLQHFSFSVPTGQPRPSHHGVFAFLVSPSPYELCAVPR
pIC50: −log10 of the molar value.
assay-endpoint: pIC50

chemical_structure=O=C1O[C@]2(CN3CCC2CC3)CN1c1ccc2sccc2c1 obs_value="< 4.52"

----------
target-system: Neuronal acetylcholine receptor; alpha4/beta2 (Homo sapiens, UniProt P17787+P43681)
Sequence (P17787 whole entry): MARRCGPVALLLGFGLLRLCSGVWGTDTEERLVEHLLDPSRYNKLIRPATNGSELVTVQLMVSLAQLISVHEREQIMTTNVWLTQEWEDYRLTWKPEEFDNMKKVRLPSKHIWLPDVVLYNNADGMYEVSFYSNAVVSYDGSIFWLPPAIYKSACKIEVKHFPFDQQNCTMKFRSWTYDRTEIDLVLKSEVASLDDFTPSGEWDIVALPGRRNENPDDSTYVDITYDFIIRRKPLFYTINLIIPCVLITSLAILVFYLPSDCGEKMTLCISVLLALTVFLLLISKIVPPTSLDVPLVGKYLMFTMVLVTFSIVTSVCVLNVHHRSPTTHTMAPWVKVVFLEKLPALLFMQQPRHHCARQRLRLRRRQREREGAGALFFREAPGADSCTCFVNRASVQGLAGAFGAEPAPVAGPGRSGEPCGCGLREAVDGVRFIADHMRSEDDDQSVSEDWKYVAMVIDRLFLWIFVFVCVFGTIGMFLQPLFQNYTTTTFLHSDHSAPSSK
Sequence (P43681 whole entry): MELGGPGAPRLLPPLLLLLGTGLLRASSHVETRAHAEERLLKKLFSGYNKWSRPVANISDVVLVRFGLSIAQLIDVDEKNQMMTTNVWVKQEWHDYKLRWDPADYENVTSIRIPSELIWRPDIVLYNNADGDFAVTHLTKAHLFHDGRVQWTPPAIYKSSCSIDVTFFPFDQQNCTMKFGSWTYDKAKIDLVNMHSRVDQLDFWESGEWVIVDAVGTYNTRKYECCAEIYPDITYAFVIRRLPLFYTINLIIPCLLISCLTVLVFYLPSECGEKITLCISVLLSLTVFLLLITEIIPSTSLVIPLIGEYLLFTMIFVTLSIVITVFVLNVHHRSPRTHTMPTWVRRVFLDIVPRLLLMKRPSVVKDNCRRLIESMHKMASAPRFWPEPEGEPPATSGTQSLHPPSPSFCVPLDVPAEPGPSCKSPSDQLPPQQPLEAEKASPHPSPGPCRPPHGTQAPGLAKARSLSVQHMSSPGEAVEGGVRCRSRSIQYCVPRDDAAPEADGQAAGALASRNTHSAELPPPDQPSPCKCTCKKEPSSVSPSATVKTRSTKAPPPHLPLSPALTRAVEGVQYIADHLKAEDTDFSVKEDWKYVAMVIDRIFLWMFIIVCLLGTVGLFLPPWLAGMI
assay-remarks: Binding affinity to human alpha4beta2 nAChR
Type: protein-complex assay
assay-endpoint: Ki

chemical_structure=c1cnc2c(c1)C[C@@]1(CN3CCC1CC3)O2 obs_value="140 nM"

----------
target-system: Neuronal acetylcholine receptor subunit alpha-7 (Homo sapiens, UniProt P36544)
assay-remarks: Agonist activity at human alpha7 nAChR expressed in Xenopus oocyte
Assay type: functional
pEC50: −log10 of the molar value.
# pEC50 annotations
assay-endpoint: pEC50

compound=c1cc2cc(-c3ccc(O[C@H]4CN5CCC4CC5)nn3)ccc2[nH]1 assay_endpoint=pEC50 obs_value=7.30
compound=COc1ccccc1-c1cccc2cc(C(=O)N[C@H]3CN4CCC3CC4)oc12 assay_endpoint=pEC50 obs_value=5.26
compound=O=C(N[C@@H]1CN2CCC1CC2)c1n[nH]c2ccccc12 assay_endpoint=pEC50 obs_value=6.10
compound="c1cncc(C2CCC3CCN2CC3)c1 (centres undefined)" assay_endpoint=pEC50 obs_value=6.36

----------
target-system: Neuronal acetylcholine receptor subunit alpha-7 (Homo sapiens, UniProt P36544)
assay-remarks: Displacement of [3H]A-585539 from alpha7 nAChR human cortex
assay-endpoint: Ki

chemical_structure=c1cc2cc(-c3ccc(O[C@H]4CN5CCC4CC5)nn3)ccc2[nH]1 obs_value="0.2 nM"

----------
target-system: Neuronal acetylcholine receptor subunit alpha-7 (Macaca mulatta, UniProt Q866A2)
Sequence (Q866A2 whole entry): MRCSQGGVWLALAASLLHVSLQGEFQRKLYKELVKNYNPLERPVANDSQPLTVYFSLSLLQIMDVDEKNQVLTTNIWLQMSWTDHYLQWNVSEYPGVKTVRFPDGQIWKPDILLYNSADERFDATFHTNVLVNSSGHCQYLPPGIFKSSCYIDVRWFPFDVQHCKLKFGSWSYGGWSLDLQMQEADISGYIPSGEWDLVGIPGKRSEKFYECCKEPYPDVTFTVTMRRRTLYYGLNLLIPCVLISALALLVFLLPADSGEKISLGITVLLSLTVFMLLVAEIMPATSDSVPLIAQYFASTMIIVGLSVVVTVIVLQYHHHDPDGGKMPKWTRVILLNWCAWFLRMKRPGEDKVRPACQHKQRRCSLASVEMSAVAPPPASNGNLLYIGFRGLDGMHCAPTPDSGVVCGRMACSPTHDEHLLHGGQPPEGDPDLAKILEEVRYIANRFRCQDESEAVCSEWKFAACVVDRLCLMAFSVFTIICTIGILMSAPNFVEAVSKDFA
assay-remarks: Agonist activity at wild type monkey alpha7 nAChR by whole cell patch clamp assay
assay-endpoint: EC50 (nM)

chemical_structure=O=C(N[C@@H]1CN2CCC1CC2)c1n[nH]c2ccccc12 target_system="Neuronal acetylcholine receptor subunit alpha-7 (Macaca mulatta, UniProt Q866A2)" assay_endpoint=EC50 unit_spec=nM obs_value=400
